Where do the numbers come from? From the supplement of paper PMC9938120.

Test system: FMOC03 (patient-derived mucinous ovarian cancer cells)
Assay: drug sensitivity score (DSS3, normalised partial AUC of % inhibition dose-response) (DSS (score)); higher = more sensitive (stronger inhibition of viability); extreme values may be limits of the assay
Conditions: 72 h; library: FO5A; assay format: 2D, 384-well, CellTiter-Glo
observed_property: drug sensitivity score
Give the figure only, with no unit attached.

NC(=O)N1CCC(CC(=O)N2CCC([C@H]3c4ncc(Br)cc4CCc4cc(Cl)cc(Br)c43)CC2)CC1 [Lonafarnib] :: 9.8

Missing value: drug sensitivity score, FMOC03, entry Cc1cccc(-c2nn3c(c2-c2ccnc4ccc(C(N)=O)cc24)CCC3)n1 [Galunisertib] . Fill in?
0

Query for FMOC03: what drug sensitivity score does the record show for CN1CCN(CCOc2cc(OC3CCOCC3)c3c(Nc4c(Cl)ccc5c4OCO5)ncnc3c2)CC1 [Saracatinib] ?
9.4

Query the reported drug sensitivity score for FMOC03; item: Cc1cc(Nc2ncc(Cl)c(Nc3ccccc3S(=O)(=O)C(C)C)n2)c(OC(C)C)cc1C1CCNCC1 [Ceritinib]
1.5
